system: HaCat; experiment: Cytotoxic Profiling of Annotated Libraries Using Quantitative High-Throughput Screening (AID 1296008); details: Five cell lines viability, CellTiter-Glo ATP luminescence, 48-72 h; note: nearly all actives have a fitted effect of over 60% in size
Records with an inconclusive call do not appear. Calls of active or inactive are those of the source. Calls come from the whole dose curve; as a rule, active = well fitted inhibition curve with a large enough effect; inconclusive = small, poorly fitted or top-dose-only effect; inactive = flat fitted curve, though single readings scatter.
Give your call using only these classes: active, inactive

Cc1csc(-c2nnc(Nc3ccc(Oc4ncccc4-c4ccnc(N)n4)cc3)c3ccccc23)c1
active

For `CNC(=O)c1cc(Oc2ccc(NC(=O)Nc3ccc(Cl)c(C(F)(F)F)c3)c(F)c2)ccn1` , which call appears in the assay record?
inactive

Which outcome did this test record for the compound `Cc1ccc(NC(=O)c2cccc(N(C)C)c2)cc1NC(=O)c1ccc(O)cc1` ?
inactive

For `NS(=O)(=O)c1cc(Cl)c(Cl)c(S(N)(=O)=O)c1` , what call appears in the results of this test?
inactive

Just curious, what result did `O=C(NCCCCN1CCOCC1)c1cc2ccccc2o1` get here?
inactive

* * *

Assay: qHTS of pediatric cancer cell lines to identify multiple opportunities for drug repurposing: Primary screen for LAN-5 cells (AID 1347100)
Conditions: LAN-5 neuroblastoma viability, CellTiter-Glo luminescence, 48 h; series mostly up to 46 µM
Experimental: Drug repurposing or repositioning has been offered as a strategy for drug development in oncology programs. […] [1] Shen, M et al. Quantitative high-throughput phenotypic screening of pediatric cancer cell lines identifies multiple opportunities for drug repurposing. […] Cells were assayed in growth media at a density of 500-1,000 cells/well. […] After a 15 min incubation at room temperature, samples were analyzed for luminescence intensity using a ViewLux High-throughput CCD imager equipped with clear filters.
Inconclusive results are not listed. Calls of active or inactive are those of the source. Calls follow the shape of the dose curve; as a rule, active = well fitted cell-killing curve with a large enough effect; inconclusive = small, poorly fitted or top-dose-only effect; inactive = no such curve, though single readings can be large or run the other way.
Response enum: active, inactive

Before answering, review these 3 worked examples.
CCCCN(CCCC)CC(O)c1cc(Cl)cc2c1-c1ccc(Cl)cc1C2=Cc1ccc(Cl)cc1 (centres undefined)
inactive
O=C(O)C1=NC(C(=O)O)CC(C=CN2c3cc(O)c(OC4OC(CO)C(O)C(O)C4O)cc3CC2C(=O)O)=C1 (centres undefined)
inactive
CCOC(=O)[C@@H](N)CCC(=O)N[C@@H](CSCc1ccccc1)C(=O)N[C@@H](C(=O)OCC)c1ccccc1
inactive

Attention now turns to another entry.
GET /call?item= `C[C@]12C=CC(=O)C=C1CC[C@@H]1[C@@H]2[C@@H](O)C[C@@]2(C)[C@@H]1CC[C@]2(O)C(=O)CO` returns the recorded outcome of this test.
active

* * *

test: Quantitative High-Throughput drug screen in 47 multiple myeloma cell lines against the NCATS MIPE library collection: L363_DSMZ cell viability assay (AID 1918984); settings: L363 myeloma viability, CellTiter-Glo ATP luminescence, 48 h; note: nearly all actives have a fitted effect of over 40% in size
Records with an inconclusive call do not appear. The source made the active and inactive calls. Calls come from the whole dose curve; as a rule, active = well fitted cell-killing curve with a large enough effect; inconclusive = small, poorly fitted or top-dose-only effect, or effect the other way; inactive = no such curve, though single readings can be large or run the other way.
Assign a class; possible classes are Y (active), N (inactive)

Some entries whose results are on file:
Cc1nc(C(=O)NCC(=O)O)c(O)c2ccc(Oc3ccccc3)cc12
N
O=[N+]([O-])c1ccc(Nc2ccccc2-c2ccccc2)c2nonc12
Y
N#CC(c1ccc(Cl)cc1)c1c(Cl)cc(-n2ncc(=O)[nH]c2=O)cc1Cl (centres undefined)
Y

In this assay, the call recorded for CC=C1C2C=C(C)CC1(N)c1ccc(=O)[nH]c1C2 (centres undefined) was what?
N

For this compound, state the assay outcome: `COc1ccc(-c2cc(=O)c3c(O)cc(O[C@@H]4O[C@H](CO[C@@H]5O[C@@H](C)[C@H](O)[C@@H](O)[C@@H]5O)[C@@H](O)[C@H](O)[C@@H]4O)cc3o2)cc1O`
N

Recorded test outcome, item `CN(C)CCCNC(=O)c1ccc(-c2cc(O)c3ncccc3c2)cc1`
Y

Tell me the assay call for `COc1ccc2cc1Oc1ccc(cc1)C[C@H]1c3cc(c(OC)cc3CCN1C)Oc1c(OC)c(OC)cc3c1[C@H](C2)N(C)CC3` please.
Y

Any idea what this test logged for O=C1C(CCC(O)c2ccc(F)cc2)C(c2ccc(O)cc2)N1c1ccc(F)cc1 (centres undefined) ?
N

Kindly provide the recorded test outcome for the following compound: `CCCCC[C@H](O)C=C[C@H]1[C@H](O)CC(=O)[C@H]1CCCCCCC(=O)O`
N

* * *

System: AS120
Assay: qHTS profiling for inhibitors of Plasmodium falciparum proliferation (AID 504749); note: nearly all actives have a fitted effect of over 60% in size
Conditions: P. falciparum in erythrocytes, SYBR Green DNA, 72 h; series mostly up to 28.7 µM
Experimental: NIH National Institute of Allergy and Infectious Diseases [NIAID] NIH Chemical Genomics Center [NCGC] […] Because mature erythrocytes lack DNA, only Plasmodium-derived DNA is detected. NCGC Assay Protocol Summary: The SYBR Green viability assay was adapted from a method described previously (Plouffe et al., 2008). […] The following morning, fluorescence intensity at 485(14) nm excitation and 535(25) nm emission wavelengths was measured on an EnVision (Perkin Elmer) plate reader. […]
Records with an inconclusive call do not appear. Activity calls are given as the source filed them. Calls come from the whole dose curve; as a rule, active = well fitted inhibition curve with a large enough effect; inconclusive = small, poorly fitted or top-dose-only effect; inactive = flat fitted curve, though single readings scatter.
Form entry, call: pick from 1 (yes) for active, 0 (no) for inactive

NS(=O)(=O)c1cc(Cl)c(Cl)c(S(N)(=O)=O)c1
0 (no)
N#CC(c1ccc(Cl)cc1)c1c(Cl)cc(-n2ncc(=O)[nH]c2=O)cc1Cl (stereo not given)
0 (no)
C=C1c2cccc(O)c2C(O)=C2C(=O)[C@@]3(O)C(O)=C(C(N)=O)C(=O)[C@@H](N(C)C)[C@@H]3[C@@H](O)[C@H]12
0 (no)
N#Cc1c(N(CC(=O)O)CC(=O)O)sc(C(=O)O)c1CC(=O)O
0 (no)
CN1CC(=O)N2C(Cc3c([nH]c4ccccc34)[C@H]2c2ccc3c(c2)OCO3)C1=O (stereo not given in full)
0 (no)
Clc1ccc(COC(Cn2ccnc2)c2ccc(Cl)cc2Cl)c(Cl)c1 (stereo not given)
1 (yes)

Hello, I am checking results. What call was entered for `COc1c(C)c2c(c(O)c1CC=C(C)CCC(=O)OCCN1CCOCC1)C(=O)OC2` ?
1 (yes)

* * *

experiment: qHTS of pediatric cancer cell lines to identify multiple opportunities for drug repurposing: Primary screen for Rh41 cells (AID 1347108); settings: Rh41 rhabdomyosarcoma viability, CellTiter-Glo luminescence, 48 h; series mostly up to 46 µM; note: nearly all actives have a fitted effect of over 70% in size
Inconclusive results are not listed. Activity calls are given as the source filed them. The call rests on the fitted dose curve; in most records, active means well fitted cell-killing curve with a large enough effect; inconclusive means small, poorly fitted or top-dose-only effect; inactive means no such curve, though single readings can be large or run the other way.
Could you please pick one outcome from this set? y = active, n = inactive

Previously resolved entries follow.
Cc1cc(-c2ncc(CC(=O)Nc3ccc(-c4cnccn4)cn3)cc2C)ccn1
n
O=C(NCCCCN1CCOCC1)c1cc2ccccc2o1
n
CCC(=O)N1CCN(c2ccc(-n3c(=O)ccc4cnc5ccc(-c6cnc7ccccc7c6)cc5c43)cc2C(F)(F)F)CC1
y
N#Cc1ccc(Oc2ccc3c(c2)COB3O)cc1
n
C#C[C@]1(O)CC[C@H]2[C@H]3CCc4cc(OC)ccc4[C@H]3CC[C@@]21C
n

Dear all, I need the recorded test outcome for `CN(C)CCN(C)C(=O)c1ccc(NC(=O)Nc2ccc(-c3nc(N4CCOCC4)c4ccn(CC(F)(F)F)c4n3)cc2)cc1` , thank you.
y

What outcome does the record of this test show for `Cc1cccc(-c2[nH]c(C(C)(C)C)nc2-c2ccc3c(c2)OCO3)n1` ?
y

Outcome logged for `NS(=O)(=O)c1ccc(Nc2nc(OCC3CCCCC3)c3[nH]cnc3n2)cc1` in this assay:
n

Could you please tell me the result logged for `O=C1C(c2c(O)[nH]c3ccccc23)=Nc2ccccc21` in this assay?
n

Dear colleague, could you share the recorded outcome for `O=c1[nH]nc(OCCCc2ccc(Cl)cc2)c(NCc2cccnc2)c1Br` when you have a moment?
y

Would you mind telling me which call this test gave `COc1cc2ncn(-c3cc(OCc4ccccc4S(C)(=O)=O)c(C#N)s3)c2cc1OC` ?
n

What did the test return for `CO[C@H]1O[C@@H]2O[C@@]3(C)CC[C@@H]4[C@@H](C)CC[C@@H]([C@H]1C)[C@@]24OO3` ?
n

* * *

assay: High-throughput drug toxicity screening in the BPDCN cell line Cal-1 (AID 1224825); conditions: Cal-1 BPDCN cell viability, qHTS; at 45.8 µM (top of the series) unless noted;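 note: cells exposed to compounds for 48 h; 100% = DMSO and 0% = bortezomib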
Catalogue of viability (% of control) readings, one per entry.
Provide only the numeric value, understood in %.

COc1cc2c(cc1Cc1cccc(Cl)c1F)c(=O)c(C(=O)O)cn2[C@H](CO)C(C)C
11
N#CC(=C1Nc2ccccc2S1)c1ccnc(OCc2ccc(CN3CCOCC3)cc2)n1
2.57
Cc1ccc(NC(=O)Nc2cc(C(F)(F)F)ccc2F)cc1Nc1ccc2c(c1)NC(=O)C2=Cc1ccc[nH]1
2.92
COc1ccc(CCN(C)CCCOc2ccc(S(=O)(=O)c3[nH]c4ccccc4c3C(C)C)cc2)cc1OC
9.08
O=C(Nc1cccc2c(=O)cc(-c3nn[nH]n3)oc12)c1ccc(OCCCCc2ccccc2)cc1
26.2

Given Cc1ccccc1C(C(=O)NC1CCCCC1)N(C(=O)CNc1ccc(C#N)cc1)c1cccc(F)c1 (centres undefined) , respond with its viability (% of control).
128

Report measured viability (% of control); entry is `Cc1[nH]c(C=C2C(=O)Nc3ccc(S(=O)(=O)N(C)c4cccc(Cl)c4)cc32)c(C)c1C(=O)N1CCN(C)CC1`
0.852

Tell us which viability (% of control) value is on record for `Nc1ncnc2c1ncn2[C@@H]1O[C@H](CO)[C@@H](O)[C@@H]1O`
18.3

Identify the reported viability (% of control) for the following entry. `C[C@@H]1CCO[C@H]2Cn3cc(C(=O)NCc4ccc(F)cc4F)c(=O)c(O)c3C(=O)N12`
12.5
